Provenance of the data: the supplement of paper PMC9170038

Recorded apparent KD of MS2 coat protein values for a group of sequences are listed next.
test system: MS2 coat protein; experiment: apparent KD of MS2 coat protein; designed switch direction (-1 OFF switch, 1 ON switch): 1; higher = weaker reporter binding; conditions: Eterna round: R95; input ligand: FMN 200 uM

The examples below pair each entry with its known result.
QUERY: Return apparent KD of MS2 coat protein (reported value) for this sequence: AUUAUACAUGAGGAUCACCCAUGUCAACGUAGUCGAGGAUAUGGGCAGCCGUGAGGCGUACUAGAAGGCGAAGAGA [Mat - Same State 1 - Mod of JL - D8] (puzzle: Same State 1)
RESULT: 84.3 nM

QUERY: Return apparent KD of MS2 coat protein (reported value) for this sequence: CAGUGCUGUCGAGAGGAUAUGCGGUGAUGGACAUGAGGAUCACCCAUGUUAGCGACAGCGUCACGGCAGAAGGCUCUACCCACUG [Soteed Omei mod 46] (puzzle: Same State 2)
RESULT: 11.7 nM

QUERY: Return apparent KD of MS2 coat protein (reported value) for this sequence: UUAUAACAUGAGGAUCACCCAUGUCAUCUAAGUCGAGGAUAUGGGAAUUAAUUAAUUAAACCAGAAGGCGAAAAUU [Mat - Same State 1 - D91] (puzzle: Same State 1)
RESULT: 160 nM

QUERY: Return apparent KD of MS2 coat protein (reported value) for this sequence: GGUCCAGCCUGAGCUGGACUACAGCAUGUACAUGAGGAUCACCCAUGUCAUGUACAUGCUUUUUGUUUGUCUUAAAA [Sensorship 10 - Jieux - Sensor for hsa-mir-208a] (puzzle: Sensor for hsa-mir-208a)
RESULT: 20.2 nM

Others:
QUERY: Return apparent KD of MS2 coat protein (reported value) for this sequence: GCGGCGGCACGGCAGGAUAUGAUAAAACCUACAUGAGGAUCACCCAUGUCGGCGGGUUGCAAAAUUCAGAAGGGCCCUGUAGGCC [Leorzaonis] (puzzle: Same State 2)
RESULT: 16.6 nM
